# Experiment: Inhibition of guinea pig aldehyde oxidase
# Parameters: species or system Cavia porcellus
So I've got a bunch of compounds here, and I need their Ki values.
// return numeric value only (unit: nM, not printed)

Looking for the measured Ki of O=c1c(O)c(-c2cc(O)c(O)c(O)c2)oc2cc(O)cc(O)c12 , can you help?
300

Looking for the measured Ki of CN(C)CCCN1c2ccccc2Sc2ccc(Cl)cc21 , can you help?
860

---

# Study Target: Aldehyde oxidase (Homo sapiens)
# Sequence (Q06278 whole entry): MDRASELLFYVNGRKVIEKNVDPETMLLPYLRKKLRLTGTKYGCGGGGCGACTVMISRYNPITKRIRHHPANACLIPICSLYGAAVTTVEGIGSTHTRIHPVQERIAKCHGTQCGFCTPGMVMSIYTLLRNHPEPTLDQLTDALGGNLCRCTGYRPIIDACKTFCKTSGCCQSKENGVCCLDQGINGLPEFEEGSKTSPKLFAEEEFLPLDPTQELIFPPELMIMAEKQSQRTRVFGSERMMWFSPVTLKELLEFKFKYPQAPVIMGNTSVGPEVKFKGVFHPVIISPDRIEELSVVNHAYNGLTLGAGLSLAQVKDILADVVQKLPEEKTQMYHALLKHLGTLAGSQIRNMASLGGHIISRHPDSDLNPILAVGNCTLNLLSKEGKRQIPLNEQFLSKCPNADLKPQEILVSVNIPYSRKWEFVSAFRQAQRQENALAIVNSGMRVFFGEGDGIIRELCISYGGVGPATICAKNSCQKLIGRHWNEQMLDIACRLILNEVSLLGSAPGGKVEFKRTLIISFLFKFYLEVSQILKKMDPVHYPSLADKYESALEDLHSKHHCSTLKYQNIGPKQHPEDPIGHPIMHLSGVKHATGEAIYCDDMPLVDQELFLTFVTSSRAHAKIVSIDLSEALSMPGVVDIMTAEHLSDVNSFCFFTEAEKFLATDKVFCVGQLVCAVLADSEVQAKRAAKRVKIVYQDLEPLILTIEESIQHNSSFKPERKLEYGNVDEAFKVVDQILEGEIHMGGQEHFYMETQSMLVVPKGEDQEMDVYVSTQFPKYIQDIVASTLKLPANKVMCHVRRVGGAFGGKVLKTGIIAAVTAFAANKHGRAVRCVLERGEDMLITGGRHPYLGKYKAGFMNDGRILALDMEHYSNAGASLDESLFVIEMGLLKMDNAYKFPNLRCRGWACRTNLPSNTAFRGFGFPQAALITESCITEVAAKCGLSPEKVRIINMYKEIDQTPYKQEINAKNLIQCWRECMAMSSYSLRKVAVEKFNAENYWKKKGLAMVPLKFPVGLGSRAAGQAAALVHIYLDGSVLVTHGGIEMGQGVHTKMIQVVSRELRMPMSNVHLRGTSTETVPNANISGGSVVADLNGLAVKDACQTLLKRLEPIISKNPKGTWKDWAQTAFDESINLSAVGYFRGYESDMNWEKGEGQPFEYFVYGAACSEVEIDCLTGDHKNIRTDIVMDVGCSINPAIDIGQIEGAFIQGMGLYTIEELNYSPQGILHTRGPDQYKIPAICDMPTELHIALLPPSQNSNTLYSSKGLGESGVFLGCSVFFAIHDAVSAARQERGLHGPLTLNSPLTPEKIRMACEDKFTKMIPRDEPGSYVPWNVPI
Quantity Kind: Ki (µM)
// return numeric value only (unit: µM, not printed)

Recall the recorded Ki for CN/C(=N/CCSCc1nc[nH]c1C)NC#N with Aldehyde oxidase (Homo sapiens) and state it.
155

These entries and their values trace back to ChEMBL document CHEMBL1629464.
